This section lists pIC50 readings for VEGFR-2 (Homo sapiens, UniProt P35968).
pIC50: −log10 of the molar value.

chemical_string | study_system | pIC50
COc1ccc2[nH]c(=O)c(/C=C3\SC(=O)N(CC(=O)Nc4ccccc4C)C3=O)cc2c1 | VEGFR-2 (Homo sapiens, UniProt P35968) | 7.01
COc1ccc(NC(=O)CN2C(=O)S/C(=C\c3cc4cc(OC)ccc4[nH]c3=O)C2=O)cc1 | VEGFR-2 (Homo sapiens, UniProt P35968) | 6.73

====

system: MDA-MB-231; assay: In vitro anti-proliferative activity (MTT assay); assay type: cell-based, human; details: Homo sapiens, MDA-MB-231; MDA-MB231; mean of three replicates
pIC50: −log10 of the molar value.

compound | pIC50
COc1ccc2[nH]c(=O)c(/C=C3\SC(=O)N(CC(=O)Nc4ccccc4)C3=O)cc2c1 | 3.91
COc1ccc(NC(=O)CN2C(=O)S/C(=C3\C(=O)Nc4ccccc43)C2=O)cc1 | 5.05
COc1ccc(NC(=O)CN2C(=O)S/C(=C\c3cc4cc(OC)ccc4[nH]c3=O)C2=O)cc1 | 3.89
COc1cccc2c1C(=O)c1c(O)c3c(c(O)c1C2=O)C[C@@](O)(C(=O)CO)C[C@@H]3O[C@H]1C[C@H](N)[C@H](O)[C@H](C)O1 [Doxorubicin, reference compound] | 5.05
COc1ccc2[nH]c(=O)c(/C=C3\SC(=O)N(CC(=O)Nc4ccccc4C)C3=O)cc2c1 | 3.73

src = paper PMC9387325
